molecular target: Excitatory amino acid transporter 3 (Homo sapiens); assay: Inhibitory concentration against glutamate uptake in HEK cells expressing human Excitatory amino acid transporter 3
Sequence (P43005 whole entry): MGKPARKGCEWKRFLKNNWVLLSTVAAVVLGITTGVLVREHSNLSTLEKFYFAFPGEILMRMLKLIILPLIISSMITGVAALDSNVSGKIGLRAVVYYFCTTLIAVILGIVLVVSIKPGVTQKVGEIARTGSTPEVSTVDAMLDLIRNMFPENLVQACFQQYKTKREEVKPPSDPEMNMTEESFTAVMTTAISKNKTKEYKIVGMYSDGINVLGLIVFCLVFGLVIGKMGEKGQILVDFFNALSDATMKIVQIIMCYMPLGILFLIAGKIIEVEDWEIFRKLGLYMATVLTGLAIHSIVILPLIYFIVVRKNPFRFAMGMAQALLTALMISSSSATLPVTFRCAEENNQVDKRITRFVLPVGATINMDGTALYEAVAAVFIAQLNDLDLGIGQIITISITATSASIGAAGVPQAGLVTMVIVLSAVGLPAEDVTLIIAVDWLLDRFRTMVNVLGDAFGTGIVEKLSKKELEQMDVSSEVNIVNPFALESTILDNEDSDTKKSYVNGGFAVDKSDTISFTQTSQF
TEST_READOUT: pIC50
Worth noting: pIC50 values are minus log10 of concentrations stated in mol/L.

Sample records with pIC50:
{"columns": ["COMPOUND", "pIC50"],
 "data": [
  ["N[C@@H](CC(=O)Nc1ccc2c(c1)Cc1cc(F)ccc1-2)C(=O)O", 7.30],
  ["N[C@@H](CC(=O)Nc1ccc(-c2cccc(C(F)(F)F)c2)cc1)C(=O)O", 6.30],
  ["Cc1cc(NC(=O)C[C@H](N)C(=O)O)ccc1-c1ccc(Cl)cc1", 5.82],
  ["N[C@@H](CC(=O)Nc1ccc2c(c1)Cc1c(Cl)cc(Cl)cc1-2)C(=O)O", 6.35]
]}

Measured pIC50 for this entry Cc1cc(-c2ccccc2)ccc1NC(=O)CC(N)C(=O)O (stereo not given) on Excitatory amino acid transporter 3 (Homo sapiens): 6.22
